The reported measurements were obtained from the supplement of paper PMC10338343.

Test system: MILI (PIWIL2) piRISC loaded with L1MC piRNA (26 nt);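 further: 1 nM active piRISC with 0.1 nM target library at 33 °C single turnover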
Test: pre-steady-state target cleavage rate (min^-1); guide: L1MC piRNA 5'p-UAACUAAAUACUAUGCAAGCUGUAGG; higher = faster piRNA-guided slicing of the target
Conditions: auxiliary factor: none (no GTSF1)
Binning of pre-steady-state target cleavage rate into classes: small value: < 0.005; mid value: ≥ 0.005 and < 0.008; large value: ≥ 0.008

Class (by measured pre-steady-state target cleavage rate) for UCCUGGAUCAGGAAGCAUAGUAUUUAGUAA
small value

Class (by measured pre-steady-state target cleavage rate) for UCCUCCUACAGCUUGGAUUGUAUUUAGUUA
small value

Class (by measured pre-steady-state target cleavage rate) for UCCUGGAUCAGCUAGCAUAGUAUUUAGAUA
small value

Class (by measured pre-steady-state target cleavage rate) for UCCUGGAACAGCUUGCAUAGUAUUAUAGUUA
small value

Class (by measured pre-steady-state target cleavage rate) for UCCUGGAUGAGCAUGCAUUGUAUUUAGUUA
large value

Class (by measured pre-steady-state target cleavage rate) for UCCUGCUACAGCUUGCAUAGUAUUUAGUUUA
large value

Class (by measured pre-steady-state target cleavage rate) for UCCUGGAUCAGCAUGCAUAGUAUUAAGUUA
mid value

Class (by measured pre-steady-state target cleavage rate) for UCCUGGUACAGCAUCCAUAGUAUUUAGUUA
small value

Class (by measured pre-steady-state target cleavage rate) for UCCUGGAACAGCUUGCAUAGUAAUUUAGUUA
mid value

Class (by measured pre-steady-state target cleavage rate) for UCCUCCUACAGCAUUGCAUAGUAUUUAGUUA
mid value

Class (by measured pre-steady-state target cleavage rate) for UCCUGGAUCAGCUAGCUUAGUAUUUAGUUA
large value

Class (by measured pre-steady-state target cleavage rate) for UCCUCCUUCAGGUUGCAUAGUAUUUAGUUA
large value

Class (by measured pre-steady-state target cleavage rate) for UCCUGGAUGUCGACGCAUAGUAUUUAGUUA
small value

Class (by measured pre-steady-state target cleavage rate) for UCCUGGAUGUGCUGCAUAGUAUUUAGUUA
large value

Class (by measured pre-steady-state target cleavage rate) for UCCUGGAUCAGCUUGCUUAGUAAUUAGUUA
mid value

Class (by measured pre-steady-state target cleavage rate) for UCCUGGAUGUCGUUGCAUAGUAUUUAGUGA
small value

Class (by measured pre-steady-state target cleavage rate) for UCCUGGAUGAGCUUGGUUAGUAUUUAGUAA
mid value

Class (by measured pre-steady-state target cleavage rate) for UCCUGGAUGUGCAUGCAUAGUAUUUAGAAA
small value

Class (by measured pre-steady-state target cleavage rate) for UCCUGGAUCAGCUUGCAUAGUAGUUAGUUA
large value

Class (by measured pre-steady-state target cleavage rate) for UCCUGGAUGUGCUAGCAUAGUAUUUAGUUA
mid value

Class (by measured pre-steady-state target cleavage rate) for UCCUGGAACAGCUUGUCAUAGUAUUUAGUUA
small value

Class (by measured pre-steady-state target cleavage rate) for UCCUGCUACAGCUUCCUUAGUAUUUAGUUA
mid value

Class (by measured pre-steady-state target cleavage rate) for UCCUGGAUGUCCUUGCAUUGUAUUUAGUUA
mid value

Class (by measured pre-steady-state target cleavage rate) for UCCUGGAUGUCGAGGCAUAGUAUUUAGUUA
mid value

Class (by measured pre-steady-state target cleavage rate) for UCCUCCUACACCUUGCAAAGUAUUUAGUUA
mid value

Class (by measured pre-steady-state target cleavage rate) for UCCUGGAUGUCCUUGCAUAGUAUAUUAGUUA
mid value

Class (by measured pre-steady-state target cleavage rate) for UCCUGGAUGAGCUUGGAUAGUAUAUAGUUA
small value

Class (by measured pre-steady-state target cleavage rate) for UCCUCCUACUGCUUGCAAAGUAUUUAGUUA
mid value

Class (by measured pre-steady-state target cleavage rate) for UCCUGGAUGUGCAAGCAUAGUAUUUAGUUA
small value

Class (by measured pre-steady-state target cleavage rate) for UCCUGGUACACGUUGCAUAGUAUUUAGUUA
large value

Class (by measured pre-steady-state target cleavage rate) for UCCUGCUACAGCUAGCAUAGUAUAUAGUUA
small value

Class (by measured pre-steady-state target cleavage rate) for UCCUGGAUCAGGCUUGCAUAGUAUUUAGUUA
large value

Class (by measured pre-steady-state target cleavage rate) for UCCUGGUACAGGAAGCAUAGUAUUUAGUAA
small value

Class (by measured pre-steady-state target cleavage rate) for UCCUGGAACAGCUUGCAUAGUAUUCAGUUA
small value

Class (by measured pre-steady-state target cleavage rate) for UCCUGGAAGACCUUGCAUAGUAUUUAGUUA
mid value

Class (by measured pre-steady-state target cleavage rate) for UCCUGGAUGUCGAACGUAUCUAUUUAUGUUA
small value

Class (by measured pre-steady-state target cleavage rate) for UCCUGGAUGUCGUUCCAUAGUAUUUAGAUA
small value

Class (by measured pre-steady-state target cleavage rate) for UCCUGGAUCAGCUUGCAUAGUAUUUAGUCA
large value

Class (by measured pre-steady-state target cleavage rate) for UCCUCCUACAGUUUGCAUAGUAUUUAGUUA
large value

Class (by measured pre-steady-state target cleavage rate) for UCCUGGAUGACCUUGCAUAGUAUAUAGUUA
small value

Class (by measured pre-steady-state target cleavage rate) for UCCUGGAUCUGCUUGGAUAGUAUUUAGUUA
large value

Class (by measured pre-steady-state target cleavage rate) for UCCUCCUACAGCUAGCAUACUAUUUAGUUA
small value

Class (by measured pre-steady-state target cleavage rate) for UCCUGGAUGUCGAACCAUAGUAAUUUGUUA
small value

Class (by measured pre-steady-state target cleavage rate) for UCCUGGAACAGCUUGCAUAGUAUUUGGUUA
large value

Class (by measured pre-steady-state target cleavage rate) for UCCUGGAACAGCUUGCAUAGUAUAUAGUUA
large value

Class (by measured pre-steady-state target cleavage rate) for UCCUGGAUGUCGUUGCUUAGUAUUUUGUUA
small value

Class (by measured pre-steady-state target cleavage rate) for UCCUCCUUCAGCUUGCAUAGUAUUUUGUUA
small value

----------
Test system: EfPiwi piRISC loaded with piRNA #1 (26 nt)
Assay: pre-steady-state target cleavage rate (min^-1); auxiliary factor: 500 nM Ephydatia muelleri Gtsf1; guide: piRNA #1 5'p-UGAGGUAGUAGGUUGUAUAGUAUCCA; MIWI and MILI are mouse PIWI proteins and EfPiwi is from a freshwater sponge; tags in brackets are library labels; higher = faster piRNA-guided slicing of the target
Binning of pre-steady-state target cleavage rate into classes: bottom end: < 0.004; midrange: ≥ 0.004 and < 0.008; top end: ≥ 0.008

Class (by measured pre-steady-state target cleavage rate) for GGAGACCUAUGUAUACAACCUACUACCUCG [g2:g19:cont:t1G]
top end

Class (by measured pre-steady-state target cleavage rate) for GGAGAGGAUACUAUACAACCUACUACCUCCA
top end

Class (by measured pre-steady-state target cleavage rate) for GGAGACGAUACUAUACAACGAACUACCUCA
bottom end

Class (by measured pre-steady-state target cleavage rate) for GGAGUGGAUACUAUACAACCUACUACCAGA
midrange

Class (by measured pre-steady-state target cleavage rate) for GGAGUGGUUACUAUACAACCUACUACCUCA
top end

Class (by measured pre-steady-state target cleavage rate) for GGAGACGAUAGUAUACAACCUACUACCUCA
midrange

Class (by measured pre-steady-state target cleavage rate) for GGAGACCUAACUAUACAACCUACAUCCUCA
midrange

Class (by measured pre-steady-state target cleavage rate) for GGAGACCUUACUAUACAACCUACUACCUCCA
midrange

Class (by measured pre-steady-state target cleavage rate) for GGAGACCUAACUAUACAACCUAGUUCCUCA
bottom end

Class (by measured pre-steady-state target cleavage rate) for GGAGUGGAUACUAUACAACCUACAACGUCA
bottom end

Class (by measured pre-steady-state target cleavage rate) for GGAGACGUAACUAUACAACCUACUACCUCA
top end

Class (by measured pre-steady-state target cleavage rate) for GGAGUGGAUACUAUUCAACCUAGUACCUCA
bottom end

Class (by measured pre-steady-state target cleavage rate) for GGAGUGGAUACUAUACAACCUACUACAUCA
midrange

Class (by measured pre-steady-state target cleavage rate) for GGAGACCUAACUAUACAACCUACUACCACA
midrange

Class (by measured pre-steady-state target cleavage rate) for GGAGAGGAUACUAUACAUCCUACUAGCUCA
bottom end

Class (by measured pre-steady-state target cleavage rate) for GGAGAGGUUACUAUACAACCUACUACCUGA
midrange

Class (by measured pre-steady-state target cleavage rate) for GGAGAGGAUACUAUACAACCUAGAACCUCA
bottom end

Class (by measured pre-steady-state target cleavage rate) for GGAGAGGAUACUAUUCAACCUACUACCUGA
bottom end

Class (by measured pre-steady-state target cleavage rate) for GGAGAGGAUACUAUAACAACCUACUACCUCA
top end

Class (by measured pre-steady-state target cleavage rate) for GGAGACGAUAGCUAUACAACCUACUACCUCA
top end

Class (by measured pre-steady-state target cleavage rate) for GGAGACGAUACUAUUCAACCAACUACCUCA
midrange

Class (by measured pre-steady-state target cleavage rate) for GGAGACCUAACAAUACAACCUACUACCUCA
top end

Class (by measured pre-steady-state target cleavage rate) for GGAGACCUAUGAUAUGUACCUACAUGGAGA [g8:g13:cont:t1A]
bottom end

Class (by measured pre-steady-state target cleavage rate) for GGAGACGAUACUAUACAACCUCCUACCUCA
midrange

Class (by measured pre-steady-state target cleavage rate) for GGAGACCUAUGAAUACAACCUACAUACCUCA
bottom end

Class (by measured pre-steady-state target cleavage rate) for GGAGUGGUUACUAUACAACCUACUAGCUCA
bottom end
